Tested on: OVCAR-5 ovarian
procedure-text: NCI tumour cell line growth inhibition, 48 h
Recorded measurements of TGI, one per entry

Worked cases, TGI given:
O=C(/C=C/c1ccc2ccccc2c1)NCc1ccc(C(=O)NCc2ccccc2)cc1 ... > 100 µM
CCn1c(O)c(C=Nc2ccccc2)s/c1=N/Nc1ncc(CC(=O)Nc2ccccc2C)s1 ... > 100 µM
CCCCCCCCCCc1c2nc(c(CCCCCCCCCC)c3ccc([nH]3)c(CCCCCCCCCC)c3ccc([nH]3)c(CCCCCCCCCC)c3nc1C=C3)C=C2 ... > 100 µM
c1ccc2c(c1)nnn2CN1CCOCC1 ... > 100 µM
COC(=O)C1=C(O)C(C(=O)OC)[C@@]2(O)[C@@H](C(=O)OC)C(c3ccc(OC(=O)/C=C/c4ccccc4)cc3)C[C@@H]1[C@@H]2C(=O)OC (some centres undefined) ... 30.2 µM
O=C1CC[C@H](NC(=O)Cc2ccccc2)C(=O)N1 ... > 1250 µM

Problem: Return reported TGI; argument: COc1cc(Nc2ccnc(NCCNc3ccnc4cc(Cl)ccc34)n2)cc(OC)c1
Solution: 6.27 µM

Problem: Return reported TGI; argument: Cc1ccccc1OC(C)C(=O)NN1C(=O)CC(=O)NC1=S (centres undefined)
Solution: > 100 µM

Problem: Return reported TGI; argument: Cc1cn(C2CC(OC3CCCCO3)C(CO)O2)c(=O)[nH]c1=O (centres undefined)
Solution: > 100 µM

Problem: Return reported TGI; argument: S=C(S)NCCNC(=S)S.[Cu+2]
Solution: > 100 µM

Problem: Return reported TGI; argument: COc1cc(C(=O)O)ccc1OS(=O)(=O)O
Solution: > 100 µM

Problem: Return reported TGI; argument: [N-]=[N+]=Nc1cc(=O)n(-c2ccccc2)c2ccccc12
Solution: > 100 µM

Problem: Return reported TGI; argument: O=C(CC1(O)C(=O)Nc2c(Cl)cc(Cl)cc21)c1ccc(Br)cc1 (centres undefined)
Solution: 31.4 µM

Problem: Return reported TGI; argument: COC(c1ccccc1)C(c1ccccc1)N1CCOCC1 (centres undefined)
Solution: > 100 µM
